Would you mind telling me the reported MIC Escherichia coli (GC 4559) of each entry?
# Test system: Escherichia coli
# method_summary: in vitro antibacterial evaluation, MIC by broth dilution
# Format: cell-based
# test_parameters: strain GC 4559, 18 hours at 35° C.

| compound | MIC Escherichia coli (GC 4559) |
| --- | --- |
| Cc1ccc(Oc2ccc(C3OCC4OC(OC5C(CO)OC(Oc6ccc(CC7NC(=O)C(C(C)c8ccccc8)NC(=O)CNC(=O)C(CO)NC(=O)C(C(O)C8CNC(=N)N8C8OC(CO)C(O)C(O)C8O)NC(=O)C(C(O)C8CNC(=N)N8)NC7=O)cc6)C(O)C5O)C(O)C(O)C4O3)cc2)cc1 (stereo not shown) [Example 174] | >64 mg/L |
| CCOc1cc(C2OCC3OC(OC4C(CO)OC(Oc5ccc(CC6NC(=O)C(C(C)c7ccccc7)NC(=O)CNC(=O)C(CO)NC(=O)C(C(O)C7CNC(=N)N7C7OC(CO)C(O)C(O)C7O)NC(=O)C(C(O)C7CNC(=N)N7)NC6=O)cc5)C(O)C4O)C(O)C(O)C3O2)ccc1[N+](=O)[O-] (stereo not shown) [Example 167] | >128 mg/L |
| COc1cc(OC)cc(C2OC3C(OC4C(CO)OC(Oc5ccc(CC6NC(=O)C(C(C)c7ccccc7)NC(=O)CNC(=O)C(CO)NC(=O)C(C(O)C7CNC(=N)N7C7OC(CO)C(O)C(O)C7O)NC(=O)C(C(O)C7CNC(=N)N7)NC6=O)cc5)C(O)C4O)OC(CO)C(O)C3O2)c1 (stereo not shown) [Example 150a] | >64 mg/L |

Kindly indicate its recorded MIC Escherichia coli (GC 4559). Item: CC(C)=CCOc1cccc(C2OCC3OC(OC4C(CO)OC(Oc5ccc(CC6NC(=O)C(C(C)c7ccccc7)NC(=O)CNC(=O)C(CO)NC(=O)C(C(O)C7CNC(=N)N7C7OC(CO)C(O)C(O)C7O)NC(=O)C(C(O)C7CNC(=N)N7)NC6=O)cc5)C(O)C4O)C(O)C(O)C3O2)c1 (stereo not shown) [Example 165]
>64 mg/L
